assay_target: T1, RSV F glycoprotein (NUF4) (respiratory syncytial virus)
T1 chain 1: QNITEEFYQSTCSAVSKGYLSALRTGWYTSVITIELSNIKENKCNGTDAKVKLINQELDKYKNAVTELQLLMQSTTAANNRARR
T1 chain 2: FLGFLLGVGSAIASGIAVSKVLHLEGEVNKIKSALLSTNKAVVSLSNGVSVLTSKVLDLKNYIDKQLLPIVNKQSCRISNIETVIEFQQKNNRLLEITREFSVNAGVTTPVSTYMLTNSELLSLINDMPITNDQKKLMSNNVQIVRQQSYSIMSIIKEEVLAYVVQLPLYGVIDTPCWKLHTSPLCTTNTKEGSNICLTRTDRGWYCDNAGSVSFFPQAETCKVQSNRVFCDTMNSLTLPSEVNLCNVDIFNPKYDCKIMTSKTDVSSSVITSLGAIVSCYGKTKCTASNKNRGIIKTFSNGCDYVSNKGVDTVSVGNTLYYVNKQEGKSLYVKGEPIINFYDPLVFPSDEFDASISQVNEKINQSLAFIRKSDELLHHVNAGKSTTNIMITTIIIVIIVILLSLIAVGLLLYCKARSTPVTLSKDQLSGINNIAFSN
test_method_notes: BIAcore, mAb vs NUF4 (1:1)
attribute_measured: pKd
Bear in mind: pKd is minus log10 of a mol/L concentration; give just that figure.

binder="P12f2 (monoclonal antibody) (antibody, V domains shown, mAb with framework and constant regions of SYNAGIS; also called Pf12) VH: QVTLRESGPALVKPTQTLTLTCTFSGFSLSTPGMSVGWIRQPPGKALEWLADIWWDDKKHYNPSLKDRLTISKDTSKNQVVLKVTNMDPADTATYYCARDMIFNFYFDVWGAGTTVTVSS VL: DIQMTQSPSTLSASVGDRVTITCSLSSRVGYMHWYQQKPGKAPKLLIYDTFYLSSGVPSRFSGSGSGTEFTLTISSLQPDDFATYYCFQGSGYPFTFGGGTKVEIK" result_number=9.48
binder="P11d4 (monoclonal antibody) (antibody, V domains shown, mAb with framework and constant regions of SYNAGIS) VH: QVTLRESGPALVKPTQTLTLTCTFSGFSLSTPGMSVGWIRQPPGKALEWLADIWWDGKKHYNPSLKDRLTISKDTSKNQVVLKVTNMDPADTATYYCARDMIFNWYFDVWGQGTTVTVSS VL: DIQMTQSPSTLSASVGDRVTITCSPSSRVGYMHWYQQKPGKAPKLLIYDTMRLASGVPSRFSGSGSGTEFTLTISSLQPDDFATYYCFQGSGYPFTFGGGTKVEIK" result_number=9.07
binder="A4B4 (monoclonal antibody) (antibody, V domains shown, mAb; also called A4B4/A4B4 (HC/LC)) VH: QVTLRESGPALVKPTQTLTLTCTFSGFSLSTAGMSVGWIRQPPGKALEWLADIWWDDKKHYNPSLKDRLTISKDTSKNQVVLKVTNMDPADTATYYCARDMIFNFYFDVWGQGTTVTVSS VL: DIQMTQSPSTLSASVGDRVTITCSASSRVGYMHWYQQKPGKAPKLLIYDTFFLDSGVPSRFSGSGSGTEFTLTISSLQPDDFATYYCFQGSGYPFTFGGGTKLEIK" result_number=9.24
binder="A12a6 (monoclonal antibody) (antibody, V domains shown, mAb with framework and constant regions of SYNAGIS) VH: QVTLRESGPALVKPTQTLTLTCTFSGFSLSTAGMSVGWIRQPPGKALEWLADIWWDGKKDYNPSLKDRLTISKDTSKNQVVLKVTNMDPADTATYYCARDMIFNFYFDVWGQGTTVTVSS VL: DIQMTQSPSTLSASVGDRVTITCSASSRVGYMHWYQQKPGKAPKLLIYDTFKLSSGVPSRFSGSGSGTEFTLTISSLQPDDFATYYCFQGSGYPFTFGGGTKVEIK" result_number=9.14
binder="P12f4 (monoclonal antibody) (antibody, V domains shown, mAb with framework and constant regions of SYNAGIS) VH: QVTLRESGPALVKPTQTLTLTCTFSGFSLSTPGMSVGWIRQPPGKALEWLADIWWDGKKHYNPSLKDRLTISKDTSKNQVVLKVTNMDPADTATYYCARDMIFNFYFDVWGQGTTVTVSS VL: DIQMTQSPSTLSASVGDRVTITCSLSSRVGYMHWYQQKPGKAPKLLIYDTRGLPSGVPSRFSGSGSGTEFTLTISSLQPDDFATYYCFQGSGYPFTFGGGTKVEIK" result_number=9.62

Quick one: pKd for SYNAGIS® (monoclonal antibody) (antibody, V domains shown, also called SYNAGIS ®/SYNAGIS ® (HC/LC)) VH: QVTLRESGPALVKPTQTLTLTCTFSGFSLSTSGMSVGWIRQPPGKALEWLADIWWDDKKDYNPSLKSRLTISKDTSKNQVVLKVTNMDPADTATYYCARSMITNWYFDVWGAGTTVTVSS VL: DIQMTQSPSTLSASVGDRVTITCKCQLSVGYMHWYQQKPGKAPKLLIYDTSKLASGVPSRFSGSGSGTEFTLTISSLQPDDFATYYCFQGSGYPFTFGGGTKLEIK ?
8.06

Quick one: pKd for A13c4 (monoclonal antibody) (antibody, V domains shown, mAb with framework and constant regions of SYNAGIS) VH: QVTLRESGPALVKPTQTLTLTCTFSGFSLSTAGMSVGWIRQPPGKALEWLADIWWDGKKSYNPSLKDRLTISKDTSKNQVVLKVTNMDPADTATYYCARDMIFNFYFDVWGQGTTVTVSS VL: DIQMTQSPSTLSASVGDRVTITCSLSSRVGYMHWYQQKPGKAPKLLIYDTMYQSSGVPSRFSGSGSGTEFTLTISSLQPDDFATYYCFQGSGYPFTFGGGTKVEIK ?
9.12

Quick one: pKd for A17d4 (monoclonal antibody) (antibody, V domains shown, mAb with framework and constant regions of SYNAGIS) VH: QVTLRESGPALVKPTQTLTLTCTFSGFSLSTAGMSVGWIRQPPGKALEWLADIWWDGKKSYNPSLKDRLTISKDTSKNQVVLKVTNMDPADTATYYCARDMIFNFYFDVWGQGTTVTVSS VL: DIQMTQSPSTLSASVGDRVTITCLPSSRVGYMHWYQQKPGKAPKLLIYDTMYQASGVPSRFSGSGSGTEFTLTISSLQPDDFATYYCFQFSGYPFTFGGGTKLEIK ?
9.14
